Where do these numbers come from? They come from the Human Domainome abundance scans (Beltran et al. 2025).

B1: POU domain, class 3, transcription factor 3, residues 408 to 463; numbered along this chain, P20264 (parent)
chain: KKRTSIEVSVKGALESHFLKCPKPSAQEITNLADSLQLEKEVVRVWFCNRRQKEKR

Variants of: B1
Assay: abundance fitness (aPCA) (normalised: wild type 0, dead -1); higher = more abundant; growth selection in yeast, the domain comes from the species named
Settings: Homo sapiens
Quick rule for you: abundance fitness at -0.1 or higher means YES, lower means NO.

# example entries with known answers
Q37E	YES
K53N	NO
R50K	NO
I6V	YES

Determine whether this variant has abundance fitness no lower than -0.1: L14Y
NO
